- target under test: PAPD5 (Homo sapiens)
- Construct: made in house
- protocol notes: High-throughput luminescence (KinaseGlo) RNA polyadenylation assay, ATP utilization by recombinant PAPD5
- Assay type: biochemical
- experimental context: Table 4 (entries of Table 5); 33 μM compound; ratio of luminescence with inhibitor to DMSO
Provide the reported Fold-change determined at compound concentration 33 μM of each item.
Answers are plain numbers.

# count of solved cases: 6
compound: O=C(NC1CC1)c1ccc(Cn2c(SCc3ccccc3Cl)nc3ccncc32)cc1 [Entry 202]
numeric readout: 1.164

compound: COc1cc(C2CC(=O)Nc3c2sc(C(=O)O)c3-c2cccc(F)c2)ccc1OCC(N)=O (stereo not drawn) [Entry 197]
numeric readout: 1.142

compound: Cc1ccc(C(=O)Nc2c(-c3ccccc3)nc3ccccn23)cc1 [Entry 190]
numeric readout: 1.309

compound: CC(C)Cn1cc(NC(=O)NCc2ccccc2)c2ccccc2c1=O [Entry 57a]
numeric readout: 1.099

compound: O=C(O)C1CCCN(c2ncnc3c2oc2ccccc23)C1 (stereo not drawn) [Entry 35]
numeric readout: 1.04

compound: CN(C)CCNC(=O)c1ccc(Cn2c(=O)c3cccn3c3cccnc32)cc1 [Entry 70]
numeric readout: 1.103

Parameters: items (list). Returns: Fold-change determined at compound concentration 33 μM for each item.
1. O=C(O)c1cccc(Nc2c(-c3cc(Br)ccc3O)nc3cnccn23)c1 [Entry 193]
2. Cc1ccc2c(c1)n(Cc1ccc(Cl)cc1)c(=O)c1nc(C(=O)O)nn12 [Entry 213]
3. COc1ccc(C(=O)N2CCc3ccc(CNS(C)(=O)=O)cc32)cc1 [Entry 221]

Marked response:
1. 1.134
2. 1.199
3. 1.084

###

Provide the reported Fold-change determined at compound concentration 100 μM of each item.
- target under test: PAPD5 (Homo sapiens, UniProt Q8NDF8)
- Construct: made in house
- Sequence (Q8NDF8 68-698 isoform Q8NDF8-5): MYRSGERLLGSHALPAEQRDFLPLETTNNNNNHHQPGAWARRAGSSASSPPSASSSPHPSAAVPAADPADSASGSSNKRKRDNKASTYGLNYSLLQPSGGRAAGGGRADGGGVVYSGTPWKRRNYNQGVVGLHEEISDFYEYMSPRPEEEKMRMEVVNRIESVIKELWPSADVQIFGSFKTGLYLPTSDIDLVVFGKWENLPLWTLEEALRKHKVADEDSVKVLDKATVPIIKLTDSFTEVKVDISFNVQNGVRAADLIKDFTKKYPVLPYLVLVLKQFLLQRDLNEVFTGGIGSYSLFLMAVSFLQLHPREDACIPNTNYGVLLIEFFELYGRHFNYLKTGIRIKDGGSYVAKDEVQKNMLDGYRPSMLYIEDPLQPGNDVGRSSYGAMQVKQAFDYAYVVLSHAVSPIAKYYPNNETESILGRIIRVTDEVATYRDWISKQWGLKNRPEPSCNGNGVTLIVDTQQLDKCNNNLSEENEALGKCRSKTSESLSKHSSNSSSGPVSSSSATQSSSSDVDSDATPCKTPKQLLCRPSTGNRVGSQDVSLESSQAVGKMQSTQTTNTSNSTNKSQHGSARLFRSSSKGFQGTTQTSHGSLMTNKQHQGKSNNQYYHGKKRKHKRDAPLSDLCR
- protocol notes: High-throughput luminescence (KinaseGlo) RNA polyadenylation assay, ATP utilization by recombinant PAPD5
- Assay type: biochemical
- experimental context: Table 4 (entries of Table 5); 100 μM compound; ratio of luminescence with inhibitor to DMSO, higher = higher inhibition
- Method: Optimal conditions for an in vitro RNA polyadenylation assay using recombinant PAPD5, ATP and an oligonucleotide substrate were identified. The HTS assay involved ATP utilization by PAPD5, which reads out as a decreased luminescence signal produced by luciferase (KinaseGlo, Promega, Madison, WI). 100 nl of compound dissolved in DMSO was transferred to each well of the assay plate via pin transfer. […] The fold change was the ratio of luminescence from a sample with inhibitor compared to that with DMSO. […]

compound: COc1ccc(OC)c(NC(=O)Cc2c(C(=O)O)[nH]c3ccc(Cl)cc23)c1 [Entry 109]
result: 1.231
--
compound: COc1cccc(C(=O)Nc2nc3nc(-c4ccccc4)cc(=O)n3[nH]2)c1 [Entry 140]
result: 1.91
--
compound: COc1ccc(Nc2ncnc3sc(C(=O)O)c(C)c23)cc1OC [Entry 40]
result: 2.956

Parameters: items (list). Returns: Fold-change determined at compound concentration 100 μM for each item.
1. COCc1c(Br)c(C)nc2sc3c(=O)[nH]nnc3c12 [Entry 166]
2. CCc1ccc(Cn2c(=O)c3sccc3n3c(=S)[nH]nc23)cc1 [Entry 76]
3. CSc1nnc(NC(=O)c2cc(=O)c3cc(C)c(C)cc3o2)s1 [Entry 125]

Marked response:
1: 1.321; 2: 1.423; 3: 1.444

Parameters: items (list). Returns: Fold-change determined at compound concentration 100 μM for each item.
1. CC(C)Cn1c(=O)c(-c2ccc(C(=O)Nc3ccc4c(c3)OCCO4)cc2)nc2ccccc21 [Entry 219]
2. Cc1ccc(NC(=O)c2ccc3c(O)c(S(=O)(=O)c4ccc(Cl)cc4)c(=O)[nH]c3c2)cc1 [Entry 95]
3. CCc1nnc(NC(=O)c2cc(=O)c3cc(C)c(C)cc3o2)s1 [Entry 123]

Marked response:
1. 1.339
2. 1.228
3. 2.189

Parameters: items (list). Returns: Fold-change determined at compound concentration 100 μM for each item.
1. Cn1c(=O)c2c(nc(Sc3nnc(NC(=O)c4ccccc4Br)s3)n2C)n(C)c1=O [Entry 81]
2. O=C(O)c1cccn2c(=O)c3c4c(sc3nc12)CCCC4 [Entry 215]
3. CC(=O)Nc1ccc2nc3c(=O)[nH]c(=O)[nH]c3nc2c1 [Entry 234]
4. CCOc1ccccc1CNC(=O)Nc1cn(CC(C)C)c(=O)c2ccccc12 [Entry 59]
5. COc1cc(-c2nc(C(N)=O)c3[nH]c(=O)n(CC4CCCO4)c3n2)ccc1O (stereo not shown) [Entry 165]

Marked response:
1: 1.288; 2: 2.037; 3: 1.648; 4: 1.69; 5: 1.689

Parameters: items (list). Returns: Fold-change determined at compound concentration 100 μM for each item.
1. O=c1c(S(=O)(=O)c2cccc(F)c2)c[nH]c2c(F)ccc(Cl)c12 [Entry 105]
2. Cc1ccc(CNC(=O)Nc2cn(CC(C)C)c(=O)c3ccccc23)cc1 [Entry 57]
3. COc1cc(NS(=O)(=O)c2ccc3oc(=O)c4ncn(C)c4c3c2)cc(OC)c1 [Entry 223]
4. CN(C)S(=O)(=O)c1ccc2c(c1)c(C(=O)n1ccnc1)cn2C [Entry 108]
5. Cn1nc(-c2ccc(Cl)cc2)c2cc(C(=O)O)sc21 [Entry 205]

Marked response:
1.333
1.518
1.254
1.547
2.055

###

- target under test: PAPD5 (Homo sapiens)
- Construct: made in house
- protocol notes: High-throughput luminescence (KinaseGlo) RNA polyadenylation assay, ATP utilization by recombinant PAPD5
- Assay type: biochemical
- experimental context: Table 4 (entries of Table 5); 100 μM compound; ratio of luminescence with inhibitor to DMSO, higher = higher inhibition
Provide the reported Fold-change determined at compound concentration 100 μM of each item.
One number for each entry.

compound: Cc1cc(C)c2c(=O)cc(CSc3nnc(-c4ccccc4)n3C)[nH]c2c1
target under test: PAPD5 (Homo sapiens)
numeric readout: 1.268
//
compound: COc1cc(Cl)c(NS(=O)(=O)c2cc3[nH]c(=O)c(=O)[nH]c3cc2C)c(OC)c1
target under test: PAPD5 (Homo sapiens)
numeric readout: 1.317
//
compound: CCCCN(C)c1cc(C(=O)O)c2cc(NC(=O)c3ccccc3OC)ccc2n1
target under test: PAPD5 (Homo sapiens)
numeric readout: 1.895
//
compound: CCOC(=O)c1ccc(NC(=O)CCc2c(C)nc3nc[nH]n3c2=O)cc1
target under test: PAPD5 (Homo sapiens)
numeric readout: 1.309
//
compound: Cc1cc2oc(C(=O)Nc3nnc(C(C)C)s3)cc(=O)c2cc1C
target under test: PAPD5 (Homo sapiens)
numeric readout: 1.377

Parameters: items (list). Returns: Fold-change determined at compound concentration 100 μM for each item.
1. O=C(O)CSc1nnc2n(-c3ccccc3)c3ccccc3n12
2. CC1=C2C(=NC(=O)CC2c2ccc(O)cc2)N(c2ccc3nncn3n2)N1 (stereo not shown)
3. Cc1ccc(S(=O)(=O)NC2=NC3=NC(c4ccccc4)=CC(c4ccc(Cl)cc4)N3N2)cc1 (stereo not shown)
4. CCc1cccc(NC(=O)Nc2cn(C)c(=O)c3ccccc23)c1
5. CCOC(=O)c1c(C)nc2n(C)c3ccccc3n12
6. Clc1ccc(Nc2nnc(Cc3ccncc3)c3ccccc23)cc1

Marked response:
1. 1.704
2. 1.243
3. 1.22
4. 1.235
5. 1.3
6. 1.275

Parameters: items (list). Returns: Fold-change determined at compound concentration 100 μM for each item.
1. O=C(O)c1csc2nc[nH]c(=O)c12
2. CC1Oc2ccc(C(=O)CSc3nc(-c4ccc(Cl)cc4)c(C#N)c(=O)[nH]3)cc2NC1=O (stereo not shown)
3. COc1ccc(NC(=O)CCn2c(=O)c3cccn3c3ccccc32)c(OC)c1
4. CCOC(=O)c1c[nH]c2nc(NCc3cccc(Br)c3)nn2c1=O
5. Cc1ccc(-c2onc3ccc(-c4cc(C(=O)O)c5ccccc5n4)cc23)cc1

Marked response:
1: 1.311; 2: 1.859; 3: 1.238; 4: 1.516; 5: 1.568

Parameters: items (list). Returns: Fold-change determined at compound concentration 100 μM for each item.
1. Cc1csc(-c2cc(S(=O)(=O)Nc3cc(C)nc4ccccc34)c(C)s2)n1
2. COc1cc2[nH]c3c(SCC(N)=O)ncnc3c2cc1OC

Marked response:
1: 1.22; 2: 1.37

Parameters: items (list). Returns: Fold-change determined at compound concentration 100 μM for each item.
1. CCCCN(CC)C(=O)CCCn1c(=O)c2cccn2c2ccccc21
2. O=c1c2sccc2n2c(=S)[nH]nc2n1Cc1ccccc1
3. CCOc1cc(C2CC(=O)Nc3c2sc(C(=O)O)c3-c2cccc(F)c2)ccc1OCC(N)=O (stereo not shown)

Marked response:
1: 1.229; 2: 1.324; 3: 1.264
